# assayed-target: canine TRPM8 (Canis lupus familiaris, UniProt Q1A7N1)
# Construct: expressed in transfected cells
# Sequence (Q1A7N1 1-1104): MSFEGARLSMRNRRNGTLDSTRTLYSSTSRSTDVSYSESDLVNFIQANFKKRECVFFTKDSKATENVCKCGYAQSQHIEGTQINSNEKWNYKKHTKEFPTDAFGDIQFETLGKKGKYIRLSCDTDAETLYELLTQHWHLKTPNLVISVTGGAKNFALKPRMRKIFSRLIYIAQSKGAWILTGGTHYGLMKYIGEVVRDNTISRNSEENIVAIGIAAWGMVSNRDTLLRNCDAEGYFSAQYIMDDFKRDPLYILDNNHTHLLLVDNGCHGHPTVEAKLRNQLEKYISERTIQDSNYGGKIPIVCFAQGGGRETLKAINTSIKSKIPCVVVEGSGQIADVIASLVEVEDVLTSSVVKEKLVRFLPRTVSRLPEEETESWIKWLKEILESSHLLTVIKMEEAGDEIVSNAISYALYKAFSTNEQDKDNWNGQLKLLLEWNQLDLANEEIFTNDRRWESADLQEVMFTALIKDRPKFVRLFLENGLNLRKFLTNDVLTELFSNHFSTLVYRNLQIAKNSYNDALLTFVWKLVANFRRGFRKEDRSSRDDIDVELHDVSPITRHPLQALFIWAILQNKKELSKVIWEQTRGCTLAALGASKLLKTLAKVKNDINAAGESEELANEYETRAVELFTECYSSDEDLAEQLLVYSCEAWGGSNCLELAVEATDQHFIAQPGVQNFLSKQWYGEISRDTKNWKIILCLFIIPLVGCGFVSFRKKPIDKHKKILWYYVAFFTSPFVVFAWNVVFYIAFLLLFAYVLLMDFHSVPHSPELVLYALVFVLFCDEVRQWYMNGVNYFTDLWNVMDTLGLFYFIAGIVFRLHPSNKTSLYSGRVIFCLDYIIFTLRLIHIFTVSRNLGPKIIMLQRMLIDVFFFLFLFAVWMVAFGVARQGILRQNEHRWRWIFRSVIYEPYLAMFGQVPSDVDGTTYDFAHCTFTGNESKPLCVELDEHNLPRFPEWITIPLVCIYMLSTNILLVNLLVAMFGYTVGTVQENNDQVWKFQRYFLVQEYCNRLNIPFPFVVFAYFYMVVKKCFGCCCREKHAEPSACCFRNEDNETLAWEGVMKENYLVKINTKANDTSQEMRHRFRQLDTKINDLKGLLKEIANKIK
# test-protocol: In vitro canine TRPM8 functional assay (icilin-induced Ca2+ fluorescence, FLIPR/FDSS)
# Format: cell-based
# measurement-conditions: HEK293, 0.5 μM compound; HEK293 canine TRPM8; icilin challenge
# Experimental: The functional activity of compounds of the formula (I) was determined by measuring changes in intracellular calcium concentration using a Ca^2+-sensitive fluorescent dye. The changes in fluorescent signal were monitored by a fluorescence plate reader, either a FLIPR™ (Molecular Devices) or FDSS (Hamamatsu). […]
outcome-measure: inhibition at 0.5 µM (%)
Give bare numbers, in %.

Some molecules with recorded inhibition at 0.5 µM:
molecule	readout-unit	experimental-result
O=C(Nc1cccc2cnccc12)C(Nc1ccccc1)c1cccc(C(F)(F)F)c1 (centres unmarked)	%	96
Cc1ccccc1NC(C(=O)Nc1cccc2cnccc12)c1ccc(C(F)(F)F)cc1 (centres unmarked)	%	104
O=C(Nc1cccc2cnccc12)C(c1ccc(C(F)(F)F)cc1)N1CCCc2ccccc21 (centres unmarked)	%	79.7

I'm hoping you can list inhibition at 0.5 µM for every molecule here, please.
1. O=C(Nc1cccc2[nH]ncc12)C(Nc1ccccc1)c1ccc(C(F)(F)F)cc1 (centres unmarked)
2. O=C(Nc1cccc2cnccc12)C(Nc1ccccc1)c1ccc(C(F)(F)F)cc1 (centres unmarked) [Cpd 4]

1: 101; 2: 104

I'm hoping you can list inhibition at 0.5 µM for every molecule here, please.
1. O=C(Nc1cccc2cnccc12)C(Nc1cccc(F)c1)c1ccc(C(F)(F)F)cc1 (centres unmarked)
2. O=C(Nc1cccc2cnccc12)C(Nc1cccc(Cl)c1)c1ccc(C(F)(F)F)cc1 (centres unmarked)
3. O=C(Nc1cccc2ncccc12)C(Nc1cccc(F)c1F)c1ccc(Cl)cc1 (centres unmarked)
4. O=C(Nc1cccc2cn[nH]c12)C(Nc1ccccc1)c1ccc(C(F)(F)F)cc1 (centres unmarked)
5. O=C(Nc1cccc2cnccc12)C(Nc1ccccc1)c1ccc(Cl)cc1 (centres unmarked)
6. O=C(Nc1cccc2cnccc12)C(Nc1cccc(F)c1F)c1ccc(Cl)cc1 (centres unmarked)

1. 95
2. 101
3. 80
4. 98.3
5. 93
6. 87
